Data credit: patent US20230374132A1

# Assayed system: T1, human CD3 E&D complex protein (Sino Biological Inc., CT026H0323H) (human, UniProt P07766 23-126; P04234 22-105)
# T1 construct: bought heterodimer; also called human CD3 protein (CT026H0323H)
# T1 sequence (P07766 23-126, chain 1 of 2): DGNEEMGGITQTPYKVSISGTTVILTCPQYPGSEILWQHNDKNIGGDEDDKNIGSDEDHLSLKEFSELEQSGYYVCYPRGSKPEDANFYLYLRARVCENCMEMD
# T1 sequence (P04234 22-105, chain 2 of 2): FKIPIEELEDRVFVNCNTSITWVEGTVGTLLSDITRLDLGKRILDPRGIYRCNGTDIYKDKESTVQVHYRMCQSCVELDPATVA
# Run description: BLI, antibody on sensor
Assay endpoint: kon (M⁻¹ s⁻¹)
Numbers only here, please. The scale is M⁻¹ s⁻¹.

Entry hzsp34.81 (antibody, human IgG1, lambda, L234A L235A, V domains shown, CDR mutant of hzsp34.24; IgG1 L234A L235A, lambda) VH: EVQLVESGGGLVQPGGSLKLSCAASGFTFNTYAMNWVRQASGKGLEWVGRISSKYNNYATYYADSVKDRFTISRDDSKSTLYLQMNSLKTEDTAVYYCARHGNFGQSYVSWFAYWGQGTTVTVSS VL: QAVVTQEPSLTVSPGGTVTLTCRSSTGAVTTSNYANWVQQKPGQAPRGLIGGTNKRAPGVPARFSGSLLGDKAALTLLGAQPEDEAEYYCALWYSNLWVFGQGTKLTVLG , kon reported as 186000

Entry hzsp34.115 (antibody, human IgG1, lambda, L234A L235A, V domains shown, CDR mutant of hzsp34.24; IgG1 L234A L235A, lambda) VH: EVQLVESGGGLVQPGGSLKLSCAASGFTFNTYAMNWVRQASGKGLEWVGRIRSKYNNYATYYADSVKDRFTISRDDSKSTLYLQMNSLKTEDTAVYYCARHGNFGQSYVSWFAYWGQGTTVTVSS VL: QAVVTQEPSLTVSPGGTVTLTCRSSTGAVTTSNYANWVQQKPGQAPRGLIGGTNSRAPGVPARFSGSLLGDKAALTLLGAQPEDEAEYYCALWYSNLWVFGQGTKLTVLG , kon reported as 264000

Entry hzsp34.91 (antibody, human IgG1, lambda, L234A L235A, V domains shown, CDR mutant of hzsp34.24; IgG1 L234A L235A, lambda) VH: EVQLVESGGGLVQPGGSLKLSCAASGFTFNTYAMNWVRQASGKGLEWVGRIRSKYNNYATYYADSVKDRFTISRDDSKSTLYLQMNSLKTEDTAVYYCARHGNFGGSYVSWFAYWGQGTTVTVSS VL: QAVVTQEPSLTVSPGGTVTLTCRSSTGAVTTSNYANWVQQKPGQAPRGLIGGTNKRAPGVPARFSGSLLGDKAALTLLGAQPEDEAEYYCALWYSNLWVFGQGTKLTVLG , kon reported as 280000
